Test system: Bacteroides dorei
experimentNotes: growth AUC relative to DMSO control (median of replicates) (fraction); higher = more growth (less inhibition), active = hit call of the paper
studyConditions: 20 µM; 24 h
Entries and their measured growth AUC follow.

Some compounds with recorded growth AUC:
compound | assaySystem | growth AUC
O=C1C(Cl)=C(Cl)C(=O)C(Cl)=C1Cl | Bacteroides dorei | 0.978 (inactive)
Oc1ccccc1-c1ccccc1 | Bacteroides dorei | 1.02 (inactive)
C[N+]1(C)CCCCC1.[Cl-] | Bacteroides dorei | 1.02 (inactive)

Note to self: growth AUC recorded for `CCOP(=S)(OCC)OP(=S)(OCC)OCC` was 0.993 (inactive)

Note to self: growth AUC recorded for CC1(C)C(/C=C(\Cl)c2ccc(Cl)cc2)C1C(=O)OC(C#N)c1ccc(F)c(Oc2ccccc2)c1 (stereo unspecified) was 1.04 (inactive)

Note to self: growth AUC recorded for `CON(C)C(=O)Nc1ccc(Br)c(Cl)c1` was 1.08 (inactive)

----------
System: Bacteroides dorei
experimentNotes: growth AUC relative to DMSO control (median of replicates) (fraction); higher = more growth (less inhibition), active = hit call of the paper
studyConditions: 20 µM; 24 h
Use Yes when the recorded growth AUC is no lower than 1; use No when it is lower.

querySmiles | discreteLabel
C[C@@H](Oc1ccc(Cl)cc1Cl)C(=O)O | No
COc1cc(OC)n2nc(S(=O)(=O)Nc3c(Cl)ccc(C)c3Cl)nc2n1 | Yes

Proceed to the following item.
Query block: Hi team, for `O=C(O)COc1ccccc1` , is the recorded growth AUC at or above 1?
Result block: No

----------
Entries and their measured growth AUC follow.
System: Parabacteroides distasonis
experimentNotes: growth AUC relative to DMSO control (median of replicates) (fraction); higher = more growth (less inhibition), active = hit call of the paper
studyConditions: 20 µM; 24 h
Keep it simple and answer with nothing but the number.

Some molecules with recorded growth AUC:
molecule | measured
CCCN(CCC)c1c([N+](=O)[O-])cc(C(C)C)cc1[N+](=O)[O-] | 0.932
CN(C)C(=O)Nc1cccc(C(F)(F)F)c1 | 0.961
C#CCN1CC(=O)N(COC(=O)C2C(C=C(C)C)C2(C)C)C1=O (mixture of isomers) | 0.996
CON(C)C(=O)Nc1ccc(Cl)cc1 | 1.02
CC(COc1ccc(Oc2ccccc2)cc1)Oc1ccccn1 (stereo not given) | 0.979
CCOC(=O)N(C)C(=O)CSP(=S)(OCC)OCC | 0.999

Note to self: growth AUC recorded for `CC(C)OC(=O)C(O)(c1ccc(Br)cc1)c1ccc(Br)cc1` was 0.854

Note to self: growth AUC recorded for `CCOP(=S)(OCC)Oc1nc(Cl)c(Cl)cc1Cl` was 0.963

Note to self: growth AUC recorded for `CN=C=S` was 1.08

Note to self: growth AUC recorded for `CN(C)C(CSS(=O)(=O)[O-])CSS(=O)(=O)[O-].[Na+].[Na+]` was 0.978

Note to self: growth AUC recorded for `CCc1cccc(C)c1N(C(=O)CCl)[C@@H](C)COC` was 1.01

Note to self: growth AUC recorded for `Oc1c(Cl)ccc(Cl)c1Cl` was 0.911

Note to self: growth AUC recorded for `CC(C)N1C(=O)N(c2ccccc2)CSC1=NC(C)(C)C` was 0.946

Note to self: growth AUC recorded for `S=C1NCCN1` was 1.05

Note to self: growth AUC recorded for `CCOP(=S)(OCC)SCCSCC` was 0.991

Note to self: growth AUC recorded for COP(=S)(OC)Oc1ccc(S(C)=O)c(C)c1 (stereo not given) was 1.03

Note to self: growth AUC recorded for CC(C)(C)C(O)C(Cc1ccc(Cl)cc1Cl)n1cncn1 (mixture of isomers) was 0.871

----------
Tested on: Odoribacter splanchnicus
experimentNotes: growth AUC relative to DMSO control (median of replicates) (fraction); higher = more growth (less inhibition), active = hit call of the paper
studyConditions: 20 µM; 24 h
Entries and their measured growth AUC follow.
Keep it simple and answer with nothing but the number.

compound | growth AUC
CC(Oc1ccc(Oc2nc3ccc(Cl)cc3o2)cc1)C(=O)O (racemic) | 0.923
N#Cc1cc(I)c(O)c(I)c1 | 0.853
Cc1ccc(NC(=O)c2snnc2C)cc1Cl | 0.975
COP(=S)(OC)Oc1ccc([N+](=O)[O-])c(Cl)c1 | 0.876
COc1nc(NC(C)C)nc(NC(C)C)n1 | 1.03
CCc1cc(C)cc(CC)c1-c1c(OC(=O)C(C)(C)C)n2n(c1=O)CCOCC2 | 1.03
CCCOCCN(C(=O)CCl)c1c(CC)cccc1CC | 1.02
CC(C)C(C(=O)OC(C#N)c1cccc(Oc2ccccc2)c1)c1ccc(Cl)cc1 (stereo unspecified) | 0.893

Simply: `O=C1C=CC(=O)C=C1` , Odoribacter splanchnicus, growth AUC = 0.975

Simply: `Cc1ccccc1[N+](=O)[O-]` , Odoribacter splanchnicus, growth AUC = 0.994

Simply: CCS(=O)Cc1ccccc1OC(=O)NC (stereo unspecified) , Odoribacter splanchnicus, growth AUC = 0.975

Simply: `O=P(OCCCl)(OCCCl)OCCCl` , Odoribacter splanchnicus, growth AUC = 0.868

Simply: `CNC(=O)Oc1cc(C)c(SC)c(C)c1` , Odoribacter splanchnicus, growth AUC = 1.11

Simply: `CCCCc1c(C)nc(N(C)C)[nH]c1=O` , Odoribacter splanchnicus, growth AUC = 1.05

Simply: `COP(=O)(OC)O/C(=C/Br)c1ccc(Cl)cc1Cl` , Odoribacter splanchnicus, growth AUC = 1.03

Simply: CC(C)=CC1C(C(=O)OCc2coc(Cc3ccccc3)c2)C1(C)C (stereo unspecified) , Odoribacter splanchnicus, growth AUC = 0.98

Simply: `Clc1ccc(Cl)cc1` , Odoribacter splanchnicus, growth AUC = 1.03

Simply: `CC(Cl)(Cl)C(=O)O` , Odoribacter splanchnicus, growth AUC = 0.969

Simply: COCc1c(F)c(F)c(COC(=O)C2C(C=C(C)C)C2(C)C)c(F)c1F (stereo unspecified) , Odoribacter splanchnicus, growth AUC = 1.05

Simply: `CSc1nc(NC(C)C)nc(NC(C)C)n1` , Odoribacter splanchnicus, growth AUC = 0.981

Simply: `ClC(Cl)=C(c1ccc(Cl)cc1)c1ccc(Cl)cc1` , Odoribacter splanchnicus, growth AUC = 1.02

----------
Tested on: Bifidobacterium longum subsp. longum
experimentNotes: growth AUC relative to DMSO control (median of replicates) (fraction); higher = more growth (less inhibition), active = hit call of the paper
studyConditions: 20 µM; 24 h
Entries and their measured growth AUC follow.
Keep it simple and answer with nothing but the number.

Some compounds with recorded growth AUC:
compound | assaySystem | growth AUC
COP(=O)(OC)Oc1ccc(S(C)(=O)=O)c(C)c1 | Bifidobacterium longum subsp. longum | 0.956
ClC1=C(Cl)[C@]2(Cl)C3CC=CC3[C@@]1(Cl)C2(Cl)Cl (stereo partly specified) | Bifidobacterium longum subsp. longum | 0.994
Cc1ccn2nc(S(=O)(=O)Nc3c(F)cccc3F)nc2n1 | Bifidobacterium longum subsp. longum | 1.03

Note to self: growth AUC recorded for C=CCOC(Cn1ccnc1)c1ccc(Cl)cc1Cl.O=S(=O)(O)O (stereo unspecified) was 0.843

----------
Entries and their measured growth AUC follow.
Tested on: Streptococcus salivarius
experimentNotes: growth AUC relative to DMSO control (median of replicates) (fraction); higher = more growth (less inhibition), active = hit call of the paper
studyConditions: 20 µM; 24 h
Keep it simple and answer with nothing but the number.

Some compounds with recorded growth AUC:
compound | growth AUC
CCOP(=S)(Oc1ccc([N+](=O)[O-])cc1)c1ccccc1 (configuration not stated) | 1.04
CC1(C)C(C=C(Cl)Cl)C1C(=O)OC(C#N)c1cccc(Oc2ccccc2)c1 (configuration not stated) | 0.937

Note to self: growth AUC recorded for `Nc1ccc(Cl)cc1Cl` was 1.03

Note to self: growth AUC recorded for `CCOP(=S)(OCC)Oc1cc(Cl)c(Br)cc1Cl` was 0.958

Note to self: growth AUC recorded for `Cc1nc(N(C)C)nc(OC(=O)N(C)C)c1C` was 1

Note to self: growth AUC recorded for CCOP(=O)(N=C1SCC(C)S1)OCC (configuration not stated) was 0.987

Note to self: growth AUC recorded for COP(=O)(OC)Oc1ccc(S(C)=O)c(C)c1 (configuration not stated) was 1.01

----------
System: Roseburia intestinalis
experimentNotes: growth AUC relative to DMSO control (median of replicates) (fraction); higher = more growth (less inhibition), active = hit call of the paper
studyConditions: 20 µM; 24 h
Use Satisfied when the recorded growth AUC is no lower than 1; use Not satisfied when it is lower.

Look over these answered cases.
compound | assaySystem | discreteLabel
Nc1cc(Cl)cc(Cl)c1 | Roseburia intestinalis | Satisfied
Nc1ccc(Cc2ccc(N)c(Cl)c2)cc1Cl | Roseburia intestinalis | Satisfied
C[C@@H](Oc1ccc(Oc2cnc3cc(Cl)ccc3n2)cc1)C(=O)O | Roseburia intestinalis | Satisfied

Query block: Hi team, for C=CCC1=C(C)C(OC(=O)C2C(C=C(C)C)C2(C)C)CC1=O (stereo not drawn) , is the recorded growth AUC at or above 1?
Result block: Not satisfied

Query block: Hi team, for `CO/C=C(/C(=O)OC)c1ccccc1Oc1cc(Oc2ccccc2C#N)ncn1` , is the recorded growth AUC at or above 1?
Result block: Not satisfied
